# Tested on: Bacillus subtilis
# assaySummary: Antimicrobial activity against Bacillus subtilis NCIM 2439 by broth dilution technique
# Assay type: functional
quantity: MBC

Consider the reported MBC for these compounds:
* COc1cc2c(cc1OC)C1=NN(C(N)=O)C(c3ccncc3)C1C2 (stereo unspecified) | > 512 µg/mL
* COc1cc2c(cc1OC)C1=NN(C(N)=S)C(c3ccccc3Cl)C1C2 (stereo unspecified) | 128 µg/mL
* COc1cc2c(cc1OC)C1=NN(C(N)=O)C(c3ccccc3Cl)C1C2 (stereo unspecified) | 256 µg/mL
* COc1ccc(C2C3Cc4cc(OC)c(OC)cc4C3=NN2C(N)=O)cc1OC (stereo unspecified) | > 512 µg/mL
* COc1ccc(C2C3Cc4cc(OC)c(OC)cc4C3=NN2C(N)=S)cc1OC (stereo unspecified) | > 512 µg/mL
* COc1cc2c(cc1OC)C1=NN(C(N)=S)C(c3ccc(F)cc3)C1C2 (stereo unspecified) | 8 µg/mL
* COc1cc2c(cc1OC)C1=NN(C(N)=S)C(c3ccccc3)C1C2 (stereo unspecified) | > 512 µg/mL
* COc1cc2c(cc1OC)C1=NN(C(N)=S)C(c3ccncc3)C1C2 (stereo unspecified) | > 512 µg/mL
* COc1ccc(C2C3Cc4cc(OC)c(OC)cc4C3=NN2C(N)=O)cc1 (stereo unspecified) | > 512 µg/mL
* COc1cc2c(cc1OC)C1=NN(C(N)=O)C(c3ccccc3)C1C2 (stereo unspecified) | > 512 µg/mL

Moving on to another compound below.
Exam item: GET /values?readout=MBC&item= COc1cc2c(cc1OC)C1=NN(C(N)=O)C(c3ccc(F)cc3)C1C2 (stereo unspecified)
Marked response: 16 µg/mL
